Origin of measurements: paper PMC10041525

Listed compounds paired with reported MIC
test system: 100 A. baumannii strains (50 MDR, 50 non-MDR); assay: MIC broth microdilution at IHMA Europe, panel of 100 strains; assay type: cell-based; conditions: Acinetobacter baumannii, A. baumannii IHMA 2014367, Jordan 2019, Non-MDR; read-out: MIC
measuredParameter: MIC (µg/mL)

compoundSmiles | unitsSymbol | readoutQualifier | experimentalResult
C[C@@H](O)[C@H]1C(=O)N2C(C(=O)O)=C(SCCNC=N)C[C@H]12 | µg/mL | ≤ | 0.25
CN(C)c1cc(NC(=O)CNC(C)(C)C)c(O)c2c1C[C@H]1C[C@H]3[C@H](N(C)C)C(O)=C(C(N)=O)C(=O)[C@@]3(O)C(O)=C1C2=O | µg/mL | = | 0.12
COc1c(N2C[C@@H]3CCCN[C@@H]3C2)c(F)cc2c(=O)c(C(=O)O)cn(C3CC3)c12 | µg/mL | ≤ | 0.5
C[C@@H](O)[C@H]1C(=O)N2C(C(=O)O)=C(S[C@@H]3CN[C@H](C(=O)N(C)C)C3)[C@H](C)[C@H]12 | µg/mL | = | 0.25
Cc1[nH]c(C(=O)Nc2nc3c(N4[C@@H]5CC[C@H]4COC5)cc(C(=O)O)cc3s2)c(Cl)c1Cl | µg/mL | = | 1
